tested_target: human STING variant H232R (WT) (Homo sapiens, UniProt Q86WV6, H232R)
Sequence (Q86WV6 whole entry H232R): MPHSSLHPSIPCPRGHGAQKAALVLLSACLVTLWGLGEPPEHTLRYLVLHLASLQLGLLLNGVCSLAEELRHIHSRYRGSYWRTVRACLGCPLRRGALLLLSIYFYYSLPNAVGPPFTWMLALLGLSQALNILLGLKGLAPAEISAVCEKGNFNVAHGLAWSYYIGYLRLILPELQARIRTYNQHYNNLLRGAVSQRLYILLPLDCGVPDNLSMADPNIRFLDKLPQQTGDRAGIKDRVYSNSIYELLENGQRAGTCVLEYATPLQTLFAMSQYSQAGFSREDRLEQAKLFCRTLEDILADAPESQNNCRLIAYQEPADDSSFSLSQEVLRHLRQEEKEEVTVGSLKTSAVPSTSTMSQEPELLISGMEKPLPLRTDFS
test_details: THP1-Blue ISG IRF-inducible SEAP reporter assay, STING H232R-variant
condition_summary: THP1-Blue ISG hSTING KO cells expressing STING H232R; 24 hours incubation
pEC50: −log10 of the molar value.
# label = rule met if pEC50 >= 6 else rule not met

{"molecule": "Cc1cc(Cl)cc2c(-c3cccc4nn(C)cc34)nn(-c3ccc(N4CCC(C(=O)O)CC4)nc3)c12 [compound 10]", "label": "rule not met"}
{"molecule": "Cc1cc(F)cc2c(-c3cccc4nn(C)cc34)nn(-c3ccc(N4CCC(C(=O)O)CC4)nc3)c12 [compound 4]", "label": "rule met"}
{"molecule": "Cc1cc(F)cc2c(-c3cccc4nn(C)cc34)nn(-c3ccc(N4C[C@@H]5[C@H](C4)[C@H]5C(=O)O)nc3)c12 [compound 5]", "label": "rule met"}
{"molecule": "Cc1c(Cl)ccc2c(-c3cccc4nn(C)cc34)nn(-c3ccc(N4CCC(S(C)(=O)=O)CC4)nc3)c12 [compound 2]", "label": "rule met"}
{"molecule": "Cc1cc(F)cc2c(-c3cccc4nn(C)cc34)nn(-c3ccc(N4CCN(C=O)CC4)nc3)c12 [Example #3]", "label": "rule met"}
{"molecule": "Cc1c(F)ccc2c(-c3cccc4nn(C)cc34)nn(-c3ccc(N4C[C@@H]5[C@H](C4)[C@H]5C(=O)O)nc3)c12 [compound 6]", "label": "rule met"}
